- Test system: human TRPA1 (Homo sapiens, UniProt O75762)
- Construct: expressed in transfected cells
- Sequence (O75762 whole entry): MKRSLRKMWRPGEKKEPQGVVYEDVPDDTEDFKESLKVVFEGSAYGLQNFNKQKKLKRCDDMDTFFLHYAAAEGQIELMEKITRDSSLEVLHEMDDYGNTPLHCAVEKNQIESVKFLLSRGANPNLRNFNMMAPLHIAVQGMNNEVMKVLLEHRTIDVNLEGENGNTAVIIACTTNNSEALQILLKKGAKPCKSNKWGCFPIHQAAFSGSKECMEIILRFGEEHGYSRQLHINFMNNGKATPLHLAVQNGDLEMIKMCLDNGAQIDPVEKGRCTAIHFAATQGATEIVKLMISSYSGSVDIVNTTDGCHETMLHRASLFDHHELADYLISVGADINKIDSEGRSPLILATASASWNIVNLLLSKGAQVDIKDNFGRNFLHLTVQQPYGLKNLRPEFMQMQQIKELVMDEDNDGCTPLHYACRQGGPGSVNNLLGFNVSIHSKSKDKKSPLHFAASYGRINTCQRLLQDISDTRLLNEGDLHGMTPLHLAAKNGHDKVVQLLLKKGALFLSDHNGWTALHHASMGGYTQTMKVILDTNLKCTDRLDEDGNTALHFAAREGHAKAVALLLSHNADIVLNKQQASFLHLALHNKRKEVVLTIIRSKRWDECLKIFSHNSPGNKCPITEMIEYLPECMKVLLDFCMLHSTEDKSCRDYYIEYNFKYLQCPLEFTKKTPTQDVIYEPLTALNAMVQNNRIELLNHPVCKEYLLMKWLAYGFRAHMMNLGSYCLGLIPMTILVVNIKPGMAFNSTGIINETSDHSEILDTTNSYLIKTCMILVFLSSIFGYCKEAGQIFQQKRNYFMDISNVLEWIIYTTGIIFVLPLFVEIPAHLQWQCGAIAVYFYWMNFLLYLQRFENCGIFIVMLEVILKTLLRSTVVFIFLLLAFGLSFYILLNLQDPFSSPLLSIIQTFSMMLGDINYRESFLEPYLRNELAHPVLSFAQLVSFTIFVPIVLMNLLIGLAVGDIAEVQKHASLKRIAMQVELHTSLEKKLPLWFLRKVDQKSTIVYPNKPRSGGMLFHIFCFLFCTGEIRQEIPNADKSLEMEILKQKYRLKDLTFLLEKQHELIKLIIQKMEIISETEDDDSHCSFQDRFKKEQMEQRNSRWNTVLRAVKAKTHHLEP
- Test protocol: Cell-based functional intracellular calcium ([Ca2+]i) assay, Fluo-4/Fluo-8, FlexStation, challenge with reference TRPA1 agonist (FFA, AITC or 4-HNE)
- Run parameters: HEK293 cells expressing human TRPA1; IC50 class after addition of reference TRPA1 agonist (FFA, AITC or 4-HNE); read-out: human TRPA1-HEK Activity
pIC50: −log10 of the molar value.
Readout name: pIC50

# Chemical structure, Measured value
measured = [
    ("O=C(c1cc(-c2ccncc2)n(-c2ccc(C(F)(F)F)c(F)c2)n1)N1CCN2C(=O)OC[C@@H]2C1", "< 4.60"),
    ("O=C1Nc2ccc(F)c(F)c2C2(CCN(C(=O)c3cc(-c4cccnc4)n(-c4ccc(F)c(C(F)(F)F)c4)n3)CC2)O1", "5.30 to 9.00"),
    ("O=C(c1cc(-c2cccnc2)n(-c2cc(F)c(F)c(F)c2)n1)N1CCC(n2c(=O)[nH]c3ncccc32)CC1", "< 4.60"),
    ("O=C(c1cc(-c2ccncc2)n(-c2ccc(C(F)(F)F)c(F)c2)n1)N1CCC(n2c(=O)[nH]c3ccccc32)CC1", "4.60 to 5.30"),
]
